Cited source: ChEMBL document CHEMBL1961873

Target: Dual specificity protein kinase CLK3 (Homo sapiens) (UniProt P49761)
Sequence (P49761 whole entry, looked up): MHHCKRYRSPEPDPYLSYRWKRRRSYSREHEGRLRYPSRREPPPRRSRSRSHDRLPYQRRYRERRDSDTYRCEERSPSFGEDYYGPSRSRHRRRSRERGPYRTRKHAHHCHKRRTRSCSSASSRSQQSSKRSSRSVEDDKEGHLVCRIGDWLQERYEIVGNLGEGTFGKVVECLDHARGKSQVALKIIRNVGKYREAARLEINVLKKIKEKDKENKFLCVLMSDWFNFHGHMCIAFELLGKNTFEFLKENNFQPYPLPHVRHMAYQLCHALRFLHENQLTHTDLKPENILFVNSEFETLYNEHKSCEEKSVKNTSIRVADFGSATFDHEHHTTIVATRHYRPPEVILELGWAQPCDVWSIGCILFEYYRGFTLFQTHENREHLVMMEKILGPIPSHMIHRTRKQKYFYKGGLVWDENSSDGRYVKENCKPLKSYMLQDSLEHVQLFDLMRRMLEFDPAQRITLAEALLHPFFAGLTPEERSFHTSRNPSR
Conditions: at 0.1 µM
Description: GSK_PKIS: CLK3 mean inhibition at 0.1 uM [Nanosyn]
Field: inhibition. Provide a value for each of the compounds that follow.

**Q:** Look up inhibition of COC(=O)Nc1nc2cc(Oc3ccc(NC(=O)Nc4cccc(Br)c4)cc3)ccc2[nH]1 and report it.
**A:** 1.73%

**Q:** Look up inhibition of CCOc1nccc2c1nc(-c1nonc1N)n2CC and report it.
**A:** 1.37%

**Q:** Look up inhibition of CS(=O)(=O)CCNCc1nc(-c2ccc3ncnc(Nc4ccc(OCc5cccc(C(F)(F)F)c5)cc4)c3c2)cs1 and report it.
**A:** 0.04%

**Q:** Look up inhibition of NS(=O)(=O)c1ccc(N/N=C2\C(=O)Nc3ccc(Cl)cc32)cc1 and report it.
**A:** 1.72%

**Q:** Look up inhibition of NC(=O)c1sc(-n2cnc3ccccc32)cc1OCc1ccccc1Br and report it.
**A:** 0.83%

List reported inhibition for each of these compounds:
1. CCn1c(-c2nonc2N)nc2c(C#CC(C)(C)O)nc(OCCNC)cc21
2. Nc1nccc(-c2c(-c3ccc(F)cc3)nn3cc(C(F)(F)F)ccc23)n1
3. c1ccc(Nc2ncc(-c3ccccc3)o2)cc1
4. CC(C)c1ccc(Nc2nccc(-c3cnn4ncccc34)n2)cc1
5. Nc1nccc(-c2c(-c3ccc(F)cc3)ncn2CCCN2CCOCC2)n1

**A:**
1: -0.84%; 2: -0.16%; 3: -0.17%; 4: 3.13%; 5: 1.31%

* * *

Molecular target: 3-phosphoinositide-dependent protein kinase 1 (Homo sapiens);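 also: values are mean inhibition of PDK1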
Sequence (whole entry): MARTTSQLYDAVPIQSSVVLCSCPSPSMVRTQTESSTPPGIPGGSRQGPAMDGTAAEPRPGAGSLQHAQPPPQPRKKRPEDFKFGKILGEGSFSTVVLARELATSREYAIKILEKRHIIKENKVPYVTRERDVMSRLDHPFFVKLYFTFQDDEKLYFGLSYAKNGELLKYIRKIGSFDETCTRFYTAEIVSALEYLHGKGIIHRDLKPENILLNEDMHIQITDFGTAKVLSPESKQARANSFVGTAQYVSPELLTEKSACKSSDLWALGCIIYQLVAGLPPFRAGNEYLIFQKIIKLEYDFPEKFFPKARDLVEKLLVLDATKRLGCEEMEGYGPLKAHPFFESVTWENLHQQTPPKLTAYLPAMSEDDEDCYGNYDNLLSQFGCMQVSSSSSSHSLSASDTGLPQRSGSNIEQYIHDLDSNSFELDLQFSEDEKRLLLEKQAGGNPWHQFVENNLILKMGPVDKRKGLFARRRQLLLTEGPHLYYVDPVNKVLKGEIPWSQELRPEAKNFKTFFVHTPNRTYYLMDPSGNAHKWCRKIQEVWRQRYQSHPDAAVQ
Conditions: at 0.1 µM
Field: inhibition. Provide a value for each of the compounds that follow.
One number for each entry, in %.

Example results:
**Q:** Find the measured inhibition of CN(C)CCCn1c(-c2nonc2N)nc2cnccc21 with 3-phosphoinositide-dependent protein kinase 1 (Homo sapiens) as test system.
**A:** 1.51

**Q:** Find the measured inhibition of COC(=O)Nc1nc2cc(Oc3ccc(NC(=O)Nc4cccc(Br)c4)cc3)ccc2[nH]1 with 3-phosphoinositide-dependent protein kinase 1 (Homo sapiens) as test system.
**A:** 3.36

**Q:** Find the measured inhibition of COc1cccc(-n2ncc3c(N/N=C/c4ccc(S(C)(=O)=O)cc4)ncnc32)c1 with 3-phosphoinositide-dependent protein kinase 1 (Homo sapiens) as test system.
**A:** 2.37

**Q:** Find the measured inhibition of COc1cc(Nc2nccc(-c3cnn4ncccc34)n2)cc(OC)c1 with 3-phosphoinositide-dependent protein kinase 1 (Homo sapiens) as test system.
**A:** 3.22

**Q:** Find the measured inhibition of N#Cc1cccc(Nc2nccc(-c3cnn4ncccc34)n2)c1 with 3-phosphoinositide-dependent protein kinase 1 (Homo sapiens) as test system.
**A:** 2.83

**Q:** Find the measured inhibition of Cc1ccc2c(-c3ccnc(Nc4ccc5c(c4)OCCO5)n3)c(-c3ccc(C(F)(F)F)cc3)nn2n1 with 3-phosphoinositide-dependent protein kinase 1 (Homo sapiens) as test system.
**A:** -0.78

List reported inhibition for each of these compounds:
1. Cc1nc(-c2ccccc2)n2nc(NCCCN3CCOCC3)ncc12
2. Cc1cc(-c2ccccn2)cc(C)c1/C=C/c1cncc(-c2nn[nH]n2)c1
3. Oc1cccc(-c2nc(-c3ccccc3)[nH]c2-c2ccncc2)c1

**A:**
1. 2.52
2. -0.5
3. 4.03

List reported inhibition for each of these compounds:
1. NS(=O)(=O)c1ccc(NC=C2C(=O)Nc3ccc4ncsc4c32)cc1
2. CN(C)C(=O)O[C@@H]1CN[C@@H](C#Cc2cc3ncnc(Nc4ccc(OCc5cccc(F)c5)c(Cl)c4)c3s2)C1
3. OCc1ccc(-c2nc(-c3ccccn3)c(-c3ccc4c(c3)OCO4)[nH]2)cc1

**A:**
30.1
0.77
3.18

* * *

Field: inhibition. Provide a value for each of the compounds that follow.
Target: Tyrosine-protein kinase Lck (Homo sapiens);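 also: reported Lck percent inhibition is a mean value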
Conditions: at 1 µM
Answers are plain numbers, in %.

Example results:
**Q:** Find the measured inhibition of COc1ccc(-c2nn3ncccc3c2-c2ccnc(Nc3cccc(C(F)(F)F)c3)n2)cc1 with Tyrosine-protein kinase Lck (Homo sapiens) as test system.
**A:** 20.3

**Q:** Find the measured inhibition of Nc1nccc(C#Cc2cncnc2Nc2ccc(OCc3cccc(F)c3)c(Cl)c2)n1 with Tyrosine-protein kinase Lck (Homo sapiens) as test system.
**A:** 8.03

**Q:** Find the measured inhibition of COC(=O)Nc1nc2cc(Oc3ccc(NC(=O)Nc4cccc(Br)c4)cc3)ccc2[nH]1 with Tyrosine-protein kinase Lck (Homo sapiens) as test system.
**A:** 10.5

**Q:** Find the measured inhibition of CC(C)c1ccc(Nc2nccc(-c3cnn4ncccc34)n2)cc1 with Tyrosine-protein kinase Lck (Homo sapiens) as test system.
**A:** 3.47

**Q:** Find the measured inhibition of C[C@@H](Oc1cc(-n2cnc3ccc(OCC4CCN(C)CC4)cc32)sc1C(N)=O)c1ccccc1C(F)(F)F with Tyrosine-protein kinase Lck (Homo sapiens) as test system.
**A:** 33.8

**Q:** Find the measured inhibition of OCc1ccc(-c2nc(-c3ccccn3)c(-c3ccc4c(c3)OCO4)[nH]2)cc1 with Tyrosine-protein kinase Lck (Homo sapiens) as test system.
**A:** 6.53

**Q:** Find the measured inhibition of NS(=O)(=O)c1ccc(-c2cc3ccncc3cc2OCc2ccccc2)cc1 with Tyrosine-protein kinase Lck (Homo sapiens) as test system.
**A:** 3.87

**Q:** Find the measured inhibition of Cc1ccc(NC(=O)CC2CC2)cc1-c1ccc(C(=O)NCC2CC2)cc1 with Tyrosine-protein kinase Lck (Homo sapiens) as test system.
**A:** 3.82

List reported inhibition for each of these compounds:
1. Cc1cc(O)cc(C)c1/C=C/c1cncc(C(=O)N(C)C)c1
2. c1ccc(Cc2nc3ccc(Nc4ncnc5ccccc45)cc3[nH]2)cc1

**A:**
1. 8.38
2. 9.45

* * *

Field: inhibition. Provide a value for each of the molecules that follow.
Biological target: RAC-beta serine/threonine-protein kinase (Homo sapiens) (UniProt P31751)
Sequence (P31751 whole entry): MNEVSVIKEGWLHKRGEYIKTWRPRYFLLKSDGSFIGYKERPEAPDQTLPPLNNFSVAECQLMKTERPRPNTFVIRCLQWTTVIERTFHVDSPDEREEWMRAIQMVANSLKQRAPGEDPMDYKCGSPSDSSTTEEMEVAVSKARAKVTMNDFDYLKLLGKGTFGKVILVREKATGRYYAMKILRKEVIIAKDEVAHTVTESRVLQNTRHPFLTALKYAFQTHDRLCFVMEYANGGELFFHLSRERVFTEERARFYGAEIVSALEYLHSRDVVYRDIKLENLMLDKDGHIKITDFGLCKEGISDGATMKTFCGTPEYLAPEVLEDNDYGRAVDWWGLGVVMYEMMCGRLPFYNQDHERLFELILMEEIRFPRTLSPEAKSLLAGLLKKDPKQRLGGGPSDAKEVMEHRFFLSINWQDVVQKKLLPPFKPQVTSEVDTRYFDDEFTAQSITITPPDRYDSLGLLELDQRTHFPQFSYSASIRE
Settings: at 1 µM
Description: GSK_PKIS: AKT2 mean inhibition at 1 uM [Nanosyn]
Numbers only, in %.

**Q:** Find the measured inhibition of CN(C)CCCn1c(-c2nonc2N)nc2cnccc21 with RAC-beta serine/threonine-protein kinase (Homo sapiens) (UniProt P31751) as test system.
**A:** 3.82

List reported inhibition for each of these molecules:
1. CN(C)C(=O)O[C@H]1CN[C@H](C#Cc2cc3ncnc(Nc4ccc(OCc5cccc(F)c5)c(Cl)c4)c3s2)C1
2. Cc1ccc2c(c1)/C(=N/Nc1ccc(S(N)(=O)=O)cc1)C(=O)N2

**A:**
[1.59, -0.04]

* * *

Tested on: Platelet-derived growth factor receptor alpha (Homo sapiens), P16234 [T674I]
Sequence (P16234 whole entry T674I): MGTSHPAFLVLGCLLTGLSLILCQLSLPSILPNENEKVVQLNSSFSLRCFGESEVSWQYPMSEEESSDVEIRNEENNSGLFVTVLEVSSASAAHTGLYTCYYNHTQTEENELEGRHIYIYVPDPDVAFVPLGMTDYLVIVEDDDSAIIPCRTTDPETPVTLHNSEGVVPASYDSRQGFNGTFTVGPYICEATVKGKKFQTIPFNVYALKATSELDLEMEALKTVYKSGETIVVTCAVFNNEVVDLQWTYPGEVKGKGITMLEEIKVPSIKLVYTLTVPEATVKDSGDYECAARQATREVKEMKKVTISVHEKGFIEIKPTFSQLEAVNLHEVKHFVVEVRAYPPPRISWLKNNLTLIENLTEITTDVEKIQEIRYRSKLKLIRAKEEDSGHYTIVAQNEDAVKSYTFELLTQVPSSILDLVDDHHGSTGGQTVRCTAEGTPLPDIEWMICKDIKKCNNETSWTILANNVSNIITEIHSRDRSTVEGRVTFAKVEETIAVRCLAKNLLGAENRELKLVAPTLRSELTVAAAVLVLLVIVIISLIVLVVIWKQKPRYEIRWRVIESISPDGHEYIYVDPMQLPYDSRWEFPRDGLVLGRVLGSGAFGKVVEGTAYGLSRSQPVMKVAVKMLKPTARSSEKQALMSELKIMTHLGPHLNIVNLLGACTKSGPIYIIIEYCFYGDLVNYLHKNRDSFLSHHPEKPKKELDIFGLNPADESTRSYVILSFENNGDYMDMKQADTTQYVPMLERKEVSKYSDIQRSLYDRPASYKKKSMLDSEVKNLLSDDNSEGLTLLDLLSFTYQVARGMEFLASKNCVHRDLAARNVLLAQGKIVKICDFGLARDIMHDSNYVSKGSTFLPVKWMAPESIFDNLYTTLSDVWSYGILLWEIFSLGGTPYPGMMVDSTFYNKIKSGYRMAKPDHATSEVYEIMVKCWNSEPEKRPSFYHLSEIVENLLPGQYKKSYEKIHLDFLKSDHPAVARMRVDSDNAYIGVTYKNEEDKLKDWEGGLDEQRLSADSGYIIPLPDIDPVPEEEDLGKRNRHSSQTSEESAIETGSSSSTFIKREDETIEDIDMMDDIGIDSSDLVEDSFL
Settings: at 0.1 µM
Field: inhibition. Provide a value for each of the compounds that follow.
One number for each entry, in %.

**Q:** Find the measured inhibition of CCS(=O)(=O)c1ccc(OC)c(Nc2nccc(N(C)c3ccc4c(C)n[nH]c4c3)n2)c1 with Platelet-derived growth factor receptor alpha (Homo sapiens), P16234 [T674I] as test system.
**A:** 5.5

**Q:** Find the measured inhibition of COc1cc(Nc2nccc(-c3cnn4ncccc34)n2)cc(OC)c1 with Platelet-derived growth factor receptor alpha (Homo sapiens), P16234 [T674I] as test system.
**A:** 29

**Q:** Find the measured inhibition of NS(=O)(=O)c1ccc(NC=C2C(=O)Nc3ccc4ncsc4c32)cc1 with Platelet-derived growth factor receptor alpha (Homo sapiens), P16234 [T674I] as test system.
**A:** 29.3

**Q:** Find the measured inhibition of C[C@@H](Oc1cc(-n2cnc3ccc(OCC4CCN(C)CC4)cc32)sc1C(N)=O)c1ccccc1C(F)(F)F with Platelet-derived growth factor receptor alpha (Homo sapiens), P16234 [T674I] as test system.
**A:** 4.88

**Q:** Find the measured inhibition of COc1ccc2ncnc(Nc3ccc(OCc4ccccc4)cc3)c2c1 with Platelet-derived growth factor receptor alpha (Homo sapiens), P16234 [T674I] as test system.
**A:** 2.64

List reported inhibition for each of these compounds:
1. CCn1c(-c2nonc2N)nc2c(C#CC(C)(C)O)nc(OCCNC)cc21
2. c1ccc(Cc2nc3ccc(Nc4ncnc5ccccc45)cc3[nH]2)cc1

**A:**
2.61
3.02

List reported inhibition for each of these compounds:
1. CC(C)c1ccc2c(c1)NC(=O)/C2=N/Nc1ccc(S(N)(=O)=O)cc1
2. Cc1cc(O)cc(C)c1/C=C/c1cncc(C(=O)N(C)C)c1
3. COc1cccc(-n2ncc3c(N/N=C/c4ccc(S(C)(=O)=O)cc4)ncnc32)c1
4. Cc1ccc(NC(=O)CC2CC2)cc1-c1ccc(C(=O)NCC2CC2)cc1

**A:**
[6.18, 8.15, 21, 3.52]

List reported inhibition for each of these compounds:
1. CN1CCN(C(=O)c2ccc(NC(=O)Nc3ccc(N(C)c4ccnc(Nc5ccc(CS(C)(=O)=O)cc5)n4)cc3)cc2)CC1
2. NS(=O)(=O)c1cccc(Nc2cc(-c3ccc(F)cc3)n[nH]2)c1

**A:**
[67.2, 9.3]
